Entries and their measured CC50 follow.
test system: HCT116 MTAP-deleted cell lines; assay: Cell viability assay (CellTiter-Glo, 7 days), HCT116 MTAP-deleted; assay type: cell-based; conditions: Homo sapiens, HCT-116; cell viability assay, HCT116 MTAP-deleted; class symbols; read-out: CC50

compound: Cc1ncn2c1c(N)nc1cc(Cl)c(C(=O)N3CCC[C@@H]4Oc5cc(C(F)(F)F)ncc5[C@@H]43)cc12 [Fg-19]
CC50: < 100 nM
--
compound: C[C@@H]1OC[C@H](N(C)C(=O)c2ccc3nc(N)c4cncn4c3c2)c2ccc(C(F)(F)F)cc21 (single isomer, unassigned) [Ff-470]
CC50: < 100 nM
--
compound: Cc1ncn2c1c(N)nc1cnc(C(=O)N3C[C@H](C)C[C@@H]4CCc5cc(C(F)(F)F)ccc5[C@@H]43)cc12 (racemic) [Ff-462]
CC50: 100 to 1000 nM

* * *

tested on: HCT116 MTAP-deleted cell lines; experiment: Cell viability assay (CellTiter-Glo, 7 days), HCT116 MTAP-deleted; assay type: cell-based; conditions: Homo sapiens, HCT-116; cell viability assay, HCT116 MTAP-deleted; class symbols; read-out: CC50
# CC50 values compiled below
property: CC50

molecule: CN(C(=O)c1cc2c(cc1F)nc(N)c1cncn12)[C@@H]1COc2cc(C#CC(C)(C)O)ccc21
property: CC50
result: < 0.1 µM
--
molecule: C#Cc1cc2nc(N)c3cncn3c2cc1C(=O)N(C)[C@@H]1COc2cc(C(F)(F)F)ccc21
property: CC50
result: < 0.1 µM
--
molecule: CN(Cc1ccc(C(F)(F)F)cc1C(F)(F)F)C(=O)c1ccc2nc(N)c3cncn3c2c1
property: CC50
result: 0.1 to 1 µM
--
molecule: Cc1ncn2c1c(N)nc1cnc(C(=O)N3C[C@H](F)CC4Oc5cc(C(F)(F)F)ccc5C43)cc12 (mixture of isomers)
property: CC50
result: < 0.1 µM
--
molecule: CN(C(=O)c1cc2c(cc1F)nc(N)c1cncn12)[C@@H]1COc2cc(C(F)F)ccc21
property: CC50
result: 0.1 to 1 µM
--
molecule: CN(C(=O)c1cc2c(cc1F)nc(N)c1cncn12)C1COc2cc(Cl)c(Br)cc21 (stereo not shown)
property: CC50
result: < 0.1 µM
--
molecule: CN(C(=O)c1cc2c(cc1F)nc(N)c1cncn12)[C@@H]1COc2cc(C#CC3(C)CC3)ccc21
property: CC50
result: 0.1 to 1 µM
--
molecule: Nc1nc2cnc(C(=O)N3CC[C@H]4C[C@@H]3c3ccc(Cl)nc34)cc2n2cncc12
property: CC50
result: 0.1 to 1 µM
--
molecule: C[C@H](C#N)N(Cc1ccc(C(F)(F)F)cc1F)C(=O)c1cc2c(cc1F)nc(N)c1cncn12
property: CC50
result: 0.1 to 1 µM
--
molecule: Cc1ncn2c1c(N)nc1cc(F)c(C(=O)N3C[C@@H](F)C[C@@H]4Oc5cc(C(F)(F)F)ccc5[C@@H]43)cc12
property: CC50
result: < 0.1 µM
--
molecule: C[C@H]1CN(C(=O)c2cc3c(cc2Cl)nc(N)c2cncn23)[C@H]2c3ccc(C(F)(F)F)cc3C[C@H]2O1
property: CC50
result: < 0.1 µM
--
molecule: Cc1cc2nc(N)c3cncn3c2cc1C(=O)N1CCC[C@@H]2Oc3cc(C(F)(F)F)ccc3[C@@H]21
property: CC50
result: < 0.1 µM
--
molecule: Nc1nc2cc(F)c(C(=O)N3CCC4(CCc5ccccc54)C3)cc2n2cncc12 (stereo not shown)
property: CC50
result: 0.1 to 1 µM
--
molecule: Cc1ncn2c1c(N)nc1cnc(C(=O)N3CC[C@H]4C[C@@H]3c3ccc(C(F)(F)F)c(F)c3O4)cc12
property: CC50
result: < 0.1 µM
--
molecule: Cc1ncn2c1c(N)nc1ccc(C(=O)N3C[C@@H](F)C[C@@H]4Oc5cc(OC(F)(F)F)ccc5[C@@H]43)cc12
property: CC50
result: < 0.1 µM
--
molecule: Cc1nc(C)n2c1c(N)nc1ccc(C(=O)N(C)[C@@H]3COCc4cc(Br)ccc43)cc12
property: CC50
result: 0.1 to 1 µM

* * *

assay: PK data (IV/PO) in cynomolgus monkey; settings: in vivo, IV 0.33 mg/Kg, read-out: Observed CL (converted)
In this section we review reported clearance values for a set of compounds.
property: clearance

querySmiles: Cc1ncc2c(N)nc3cnc(C(=O)N4CCC[C@@H]5Oc6cc(OC(F)(F)F)ccc6[C@@H]54)cc3n12
property: clearance
result: 4 mL/min/kg

querySmiles: Cc1ncn2c1c(N)nc1cnc(C(=O)N3CCC[C@@H]4Oc5cc(C(F)(F)F)ccc5[C@@H]43)cc12
property: clearance
result: 24.5 mL/min/kg

querySmiles: Nc1nc2ccc(C(=O)N3CCC[C@@H]4Oc5cc(C(F)(F)F)ccc5[C@@H]43)cc2n2cncc12
property: clearance
result: 2.5 mL/min/kg

* * *

Some compounds, each annotated with its measured CC50.
system: HCT116 MTAP-deleted cell lines; assay: Cell viability assay (CellTiter-Glo, 7 days), HCT116 MTAP-deleted; assay type: cell-based; conditions: Homo sapiens, HCT-116; cell viability, HCT116 MTAP-deleted; class symbols; read-out: CC50
property: CC50

compound: Nc1nc2ccc(C(=O)N3CCC[C@@H]4Oc5cc(C(F)(F)F)ccc5[C@@H]43)cc2n2cncc12 [Ff-111]
result: < 100 nM
//
compound: C[C@@H]1C[C@@H]2Oc3cc(C(F)(F)F)ccc3[C@@H]2N(C(=O)c2cc3c(cc2F)nc(N)c2cncn23)C1 [Ff-251]
result: < 100 nM
//
compound: Nc1nc2cc(F)c(C(=O)N3CCO[C@@H]4Cc5cc(Br)c(F)cc5[C@@H]43)cc2n2cncc12 [Ff-160]
result: < 100 nM
//
compound: Nc1nc2ccc(C(=O)N3CCC[C@@H]4Oc5cc(OC(F)(F)F)c(F)cc5[C@@H]43)cc2n2cncc12 (racemic) [Ff-339]
result: < 100 nM
//
compound: Cc1ncn2c1c(N)nc1cc(F)c(C(=O)N(C)C3CCc4nc(C(F)(F)F)ccc43)cc12 (stereo not drawn) [Ff-68]
result: < 100 nM
//
compound: CCN(C(=O)c1ccc2nc(N)c3cncn3c2c1)[C@@H]1COc2cc(C(F)(F)F)ccc21 [Ff-8]
result: < 100 nM
//
compound: Nc1nc2ccc(C(=O)N(Cc3ccc(C(F)(F)F)cc3F)C34CC(C3)C4)cc2n2cncc12 [Ff-202]
result: 100 to 1000 nM
//
compound: Cc1ncn2c1c(N)nc1cc(F)c(C(=O)N3CCC[C@@H]4OCc5nc(C(F)(F)F)ccc5[C@@H]43)cc12 [Ff-358]
result: < 100 nM
//
compound: CC1(C)CN(C(=O)c2cc3c(cc2F)nc(N)c2cncn23)CC1c1ccccc1 (stereo not drawn) [Ff-2]
result: 100 to 1000 nM
//
compound: CN(Cc1ccc(F)cc1Cl)C(=O)c1cc2c(cc1F)nc(N)c1cncn12 [Ff-31]
result: 100 to 1000 nM
//
compound: Nc1nc2cc(F)c(C(=O)N(Cc3ccc(C(F)(F)F)cn3)c3cnn(C(F)F)c3)cc2n2cncc12 [Ff-311]
result: < 100 nM
//
compound: Nc1nc2cc(F)c(C(=O)N3CCC(F)(F)CC3c3ccc(C(F)(F)F)cn3)cc2n2cncc12 (stereo not drawn) [Ff-223]
result: 100 to 1000 nM
//
compound: Nc1nc2cnc(C(=O)N3CCC[C@@H]4Oc5cc(C(F)(F)F)ccc5[C@@H]43)cc2n2cncc12 [Ff-110]
result: < 100 nM
//
compound: CN(C(=O)c1cc2c(cc1F)nc(N)c1cncn12)[C@@H]1CC2(CC2)c2cc(C(F)(F)F)ccc21 [Ff-58]
result: < 100 nM
//
compound: C[C@H]1CN(C(=O)c2cc3c(cc2F)nc(N)c2cncn23)[C@H]2c3ccc(C(F)F)c(F)c3C[C@H]2O1 (single isomer, unassigned) [Ff-171]
result: < 100 nM
//
compound: Nc1nc2cc(F)c(C(=O)N3CCCC[C@@H]3c3ccc(C(F)(F)F)cc3)cc2n2cncc12 [Ff-139]
result: < 100 nM
//
compound: CN(C(=O)c1cc2c(cc1F)nc(N)c1cncn12)[C@@H]1COc2cc(-c3ccc(C(F)(F)F)nc3)ccc21 [Ff-229]
result: < 100 nM
//
compound: Nc1nc2cc(F)c(C(=O)N3CCCCC3c3ccc(C(F)(F)F)cn3)cc2n2cncc12 (stereo not drawn) [Ff-133]
result: < 100 nM

* * *

System: HCT116 MTAP-deleted cell lines
Assay: Cell viability assay (CellTiter-Glo, 7 days), HCT116 MTAP-deleted
Assay type: cell-based
Conditions: Homo sapiens, HCT-116; cell viability, HCT116 MTAP-deleted; class symbols; read-out: CC50
Procedure: Control compounds were analyzed in parallel each time for quality control. In Brief, on Day -1, a serial dilution of stock compounds in DMSO was performed using BioMek liquid handlers and dispensed using Echo acoustic dispenser into 384 well plates. […] Compound plates were stored as frozen until the cells were ready for seeding. […] On Day 7, the viability of cells was measured using a CTG assay kit (CellTitre-Glo;Promega cat no. G7573). […]

molecule: Nc1nc2cc(F)c(C(=O)N3CCO[C@@H]4Cc5cc(-c6cnn(C(F)F)c6)ccc5[C@@H]43)cc2n2cncc12
CC50: < 100 nM
--
molecule: CN(C(=O)c1cc2c(cc1F)nc(N)c1cncn12)[C@@H]1COCc2cc(-c3cnn(C(F)F)c3)ccc21
CC50: < 100 nM
--
molecule: Nc1nc2cc(F)c(C(=O)N3CCC[C@@H]4OCc5cc(-c6ccn(C(F)(F)F)n6)ccc5[C@@H]43)cc2n2cncc12 (racemic)
CC50: < 100 nM
--
molecule: Cn1ccc(N(Cc2ncc(C(F)(F)F)cc2F)C(=O)c2cc3c(cc2F)nc(N)c2cncn23)n1
CC50: < 100 nM
--
molecule: Nc1nc2cc(F)c(C(=O)N3CCC[C@@H]4Oc5cc(OC(F)(F)F)ccc5[C@@H]43)cc2n2cncc12 (racemic)
CC50: < 100 nM
--
molecule: CN(C(=O)c1cc2c(cc1F)nc(N)c1cncn12)[C@@H]1c2ccc(Br)cc2[C@@H]2C[C@H]12
CC50: 100 to 1000 nM
--
molecule: [2H]C([2H])([2H])N(C(=O)c1cc2c(cc1F)nc(N)c1cncn12)[C@@H](c1ccc(C(F)(F)F)cc1F)C(F)F
CC50: < 100 nM
--
molecule: Nc1nc2cc(F)c(C(=O)N(Cc3ccc(C(F)(F)F)cc3F)c3cnsc3)cc2n2cncc12
CC50: < 100 nM
--
molecule: CN1CC[C@@H](N(Cc2ccc(C(F)(F)F)cc2F)C(=O)c2cc3c(cc2F)nc(N)c2cncn23)C1=O
CC50: < 100 nM
--
molecule: Nc1nc2cc(F)c(C(=O)N3CCC(c4ccc(C(F)(F)F)cc4F)C3)cc2n2cncc12 (stereo not shown)
CC50: 100 to 1000 nM
--
molecule: CN(C(=O)c1cc2c(cc1F)nc(N)c1cncn12)[C@H]1c2ccc(Br)cc2[C@H]2C[C@H]21
CC50: 100 to 1000 nM
--
molecule: Cn1c(CN(C(=O)c2cc3c(cc2F)nc(N)c2cncn23)N2CCCC2=O)nc2cc(C(F)(F)F)ccc21
CC50: < 100 nM
--
molecule: Nc1nc2cc(F)c(C(=O)N(Cc3ccc(C(F)(F)F)cn3)C34CC(C3)C4)cc2n2cncc12
CC50: < 100 nM
--
molecule: Nc1nc2cc(F)c(C(=O)N3CCC4CC3c3ccc(C(F)(F)F)cc34)cc2n2cncc12 (stereo not shown)
CC50: 100 to 1000 nM
--
molecule: Nc1nc2cc(F)c(C(=O)N3C[C@@H](F)C[C@@H]4Oc5cc(C(F)(F)F)ccc5[C@@H]43)cc2n2cncc12
CC50: < 100 nM
--
molecule: C[C@H](C(=O)N(C)C)N(Cc1ccc(C(F)(F)F)cc1F)C(=O)c1cc2c(cc1F)nc(N)c1cncn12
CC50: 100 to 1000 nM
--
molecule: CN(C(=O)c1cc2c(cc1F)nc(N)c1cncn12)[C@@H]1COc2cc(N3CCOCC3)ccc21
CC50: < 100 nM
--
molecule: Cn1cc(N(Cc2ccc(-c3cnn(C(F)F)c3)cc2F)C(=O)c2cc3c(cc2F)nc(N)c2cncn23)cn1
CC50: < 100 nM
--
molecule: C[C@H]1CCN(C(=O)c2cc3c(cc2F)nc(N)c2cncn23)[C@@H](c2ccc(C(F)(F)F)cc2)C1 (racemic)
CC50: 100 to 1000 nM
--
molecule: Cn1cc(N(Cc2ccc(C(F)(F)F)cc2F)C(=O)c2cc3c(cc2F)nc(N)c2cncn23)cn1
CC50: < 100 nM
--
molecule: Nc1nc2cnc(C(=O)N3CCC[C@@H]4Oc5cc(OC(F)(F)F)c(F)cc5[C@@H]43)cc2n2cncc12 (racemic)
CC50: < 100 nM
--
molecule: Cc1ncc2c(N)nc3ccc(C(=O)N(C)[C@@H]4COc5nc(C(F)(F)F)ccc54)cc3n12
CC50: 100 to 1000 nM
--
molecule: Nc1nc2cc(F)c(C(=O)N3CCO[C@@H]4Cc5cc(Br)ccc5[C@@H]43)cc2n2cncc12 (racemic) [Ff-28]
CC50: < 100 nM
--
molecule: Cn1cc(N(Cc2ccc(C(F)(F)F)cc2F)C(=O)c2ccc3nc(N)c4cncn4c3c2)cn1
CC50: < 100 nM
--
molecule: CN(Cc1ccc2c(c1)OC(F)(F)O2)C(=O)c1ccc2nc(N)c3cncn3c2c1
CC50: 100 to 1000 nM
--
molecule: Nc1nc2cc(F)c(C(=O)N(Cc3ccc(OC(F)F)cc3F)C34CC(C3)C4)cc2n2cncc12
CC50: < 100 nM
--
molecule: CC(=O)N(C)N(Cc1nc2cc(Cl)ccc2s1)C(=O)c1ccc2nc(N)c3cnc(C)n3c2c1
CC50: 100 to 1000 nM
--
molecule: Cc1ncc2c(N)nc3ccc(C(=O)N(C)[C@@H]4COc5c4ccc(C(F)(F)F)c5F)cc3n12
CC50: 100 to 1000 nM
